System: Rattus norvegicus
experiment summary: Antidiabetic activity in po dosed fatty Wister rat assessed as reduction of plasma glucose level administered once daily for 7 days
Assay type: functional
The source made the active and inactive calls. The calls are words filed in the database; no cut-off is given here.
Outcomes: T for active, F for inactive

structure=CCCCCS(=O)(=O)NC(=O)CCc1cc(OC(C)C)nn1Cc1ccc(Cl)cc1Cl class_name=F
structure=CCCCCS(=O)(=O)NC(=O)/C=C/c1cc(C2CC2)nn1Cc1ccc(C(F)(F)F)cc1Cl class_name=T
structure=CCCCCS(=O)(=O)NC(=O)/C=C/c1cc(OC(C)C)nn1Cc1ccc(C(F)(F)F)cc1Cl class_name=T
structure=CC(C)CCS(=O)(=O)NC(=O)/C=C/c1cc(OC(C)C)nn1Cc1ccc(C(F)(F)F)cc1Cl class_name=T

====

experiment summary: Clearance in rat liver microsomes at 1 umol/L after 20 mins by HPLC analysis
Format: ADME, Microsome
condition label: read-out: CLH
measurement kind: microsomal CLint at 1 µM (µL/min/mg)

structure=CCCCCS(=O)(=O)NC(=O)/C=C/c1cc(OC(C)C)nn1Cc1ccc(C(F)(F)F)cc1Cl result_value=33
structure=CCCCCS(=O)(=O)NC(=O)CCc1cc(OC(C)C)nn1Cc1ccc(Cl)cc1Cl result_value=128
structure=CC(C)CCS(=O)(=O)NC(=O)/C=C/c1cc(OC(C)C)nn1Cc1ccc(C(F)(F)F)cc1Cl result_value=51
structure=CCCCCS(=O)(=O)NC(=O)/C=C/c1cc(C2CC2)nn1Cc1ccc(C(F)(F)F)cc1Cl result_value=116

====

target of assay: Peroxisome proliferator-activated receptor gamma (Homo sapiens, UniProt P37231)
Sequence (P37231 whole entry): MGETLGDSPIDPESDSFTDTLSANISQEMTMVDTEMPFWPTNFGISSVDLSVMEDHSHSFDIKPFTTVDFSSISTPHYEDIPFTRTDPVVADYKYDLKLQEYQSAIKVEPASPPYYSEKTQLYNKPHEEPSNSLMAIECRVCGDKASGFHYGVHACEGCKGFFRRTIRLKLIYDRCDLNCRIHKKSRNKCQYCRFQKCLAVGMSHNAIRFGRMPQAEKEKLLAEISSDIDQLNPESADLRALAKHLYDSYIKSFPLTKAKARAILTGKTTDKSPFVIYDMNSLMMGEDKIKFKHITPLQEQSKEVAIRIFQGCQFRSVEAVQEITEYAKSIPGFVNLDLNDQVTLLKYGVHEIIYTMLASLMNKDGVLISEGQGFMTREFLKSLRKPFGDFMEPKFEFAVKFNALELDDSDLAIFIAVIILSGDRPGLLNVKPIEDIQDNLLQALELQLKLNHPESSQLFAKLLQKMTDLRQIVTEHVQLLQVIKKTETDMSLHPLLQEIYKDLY
experiment summary: Agonist activity at full length human PPARgamma1 transfected in […] cells co expressing RXRalpha and PPRE after 1 day by luciferase reporter gene transactivation assay
Type: functional, cell-based, CHO-K1
condition label: read-out: EC50
pEC50: −log10 of the molar value.
Item-by-item account of pEC50
measurement kind: pEC50

structure=CCCCCS(=O)(=O)NC(=O)CCc1cc(OCCOC)nn1Cc1ccc(Cl)cc1Cl result_value=7.51
structure=CC(C)Oc1cc(CCC(=O)NS(C)(=O)=O)n(Cc2ccc(Cl)cc2Cl)n1 result_value=6.35
structure=CCCCCCS(=O)(=O)NC(=O)CCc1cc(OC(C)C)nn1Cc1ccc(Cl)cc1Cl result_value=7.68
structure=CCCCCS(=O)(=O)NC(=O)/C=C/c1cc(C(C)C)nn1Cc1ccc(Cl)cc1Cl result_value=8.09
structure=CCCCCS(=O)(=O)NC(=O)CCc1cc(C(C)C)nn1Cc1ccc(Cl)cc1Cl result_value=7.89

====

# microsomal CLint at 1 µM annotations
experiment summary: Clearance in human liver microsomes at 1 umol/L after 20 mins by HPLC analysis
Format: ADME, Microsome
condition label: read-out: CLH
measurement kind: microsomal CLint at 1 µM (µL/min/mg)

structure=CCCCCS(=O)(=O)NC(=O)CCc1cc(OC(C)C)nn1Cc1ccc(C(F)(F)F)cc1Cl measurement_kind="microsomal CLint at 1 µM" output_unit=µL/min/mg result_value=163
structure=CCCCCS(=O)(=O)NC(=O)CCc1cc(OCc2ccccn2)nn1Cc1ccc(Cl)cc1Cl measurement_kind="microsomal CLint at 1 µM" output_unit=µL/min/mg result_value=224
structure=CCCCCS(=O)(=O)NC(=O)CCc1cc(OC(C)C)nn1Cc1ccc(Cl)cc1Cl measurement_kind="microsomal CLint at 1 µM" output_unit=µL/min/mg result_value=192
structure=CCCCCS(=O)(=O)NC(=O)CCc1cc(OCc2ccccc2)nn1Cc1ccc(Cl)cc1Cl measurement_kind="microsomal CLint at 1 µM" output_unit=µL/min/mg result_value=100
structure=CC(C)CCS(=O)(=O)NC(=O)/C=C/c1cc(OC(C)C)nn1Cc1ccc(C(F)(F)F)cc1Cl measurement_kind="microsomal CLint at 1 µM" output_unit=µL/min/mg result_value=32
structure=CCCCCS(=O)(=O)NC(=O)CCc1cc(-c2ccccc2)nn1Cc1ccc(Cl)cc1Cl measurement_kind="microsomal CLint at 1 µM" output_unit=µL/min/mg result_value=111
structure=CCCCCS(=O)(=O)NC(=O)/C=C/c1cc(C2CC2)nn1Cc1ccc(C(F)(F)F)cc1Cl measurement_kind="microsomal CLint at 1 µM" output_unit=µL/min/mg result_value=54
structure=CCCCCS(=O)(=O)NC(=O)/C=C/c1cc(OC(C)C)nn1Cc1ccc(Cl)cc1Cl measurement_kind="microsomal CLint at 1 µM" output_unit=µL/min/mg result_value=29
structure=CCCCS(=O)(=O)NC(=O)CCc1cc(OC(C)C)nn1Cc1ccc(Cl)cc1Cl measurement_kind="microsomal CLint at 1 µM" output_unit=µL/min/mg result_value=165
structure=CCCCCS(=O)(=O)NC(=O)CCc1cc(C2CC2)nn1Cc1ccc(C(F)(F)F)cc1Cl measurement_kind="microsomal CLint at 1 µM" output_unit=µL/min/mg result_value=78
structure=COCCOc1cc(/C=C/C(=O)NS(=O)(=O)CCC(C)C)n(Cc2ccc(C(F)(F)F)cc2Cl)n1 measurement_kind="microsomal CLint at 1 µM" output_unit=µL/min/mg result_value=34
structure=CCCCCS(=O)(=O)NC(=O)CCc1cc(OCCOC)nn1Cc1ccc(Cl)cc1Cl measurement_kind="microsomal CLint at 1 µM" output_unit=µL/min/mg result_value=144
structure=CCCCCS(=O)(=O)NC(=O)CCc1cc(C(C)C)nn1Cc1ccc(Cl)cc1Cl measurement_kind="microsomal CLint at 1 µM" output_unit=µL/min/mg result_value=124
structure=CC(C)Oc1cc(CCC(=O)NS(=O)(=O)Cc2ccccc2)n(Cc2ccc(Cl)cc2Cl)n1 measurement_kind="microsomal CLint at 1 µM" output_unit=µL/min/mg result_value=107
structure=CCCCCS(=O)(=O)NC(=O)/C=C/c1cc(C(C)C)nn1Cc1ccc(Cl)cc1Cl measurement_kind="microsomal CLint at 1 µM" output_unit=µL/min/mg result_value=99
structure=CCCCCS(=O)(=O)NC(=O)/C=C/c1cc(OC(C)C)nn1Cc1ccc(C(F)(F)F)cc1Cl measurement_kind="microsomal CLint at 1 µM" output_unit=µL/min/mg result_value=26
structure=CCCCCS(=O)(=O)NC(=O)CCc1cc(C(C)C)nn1Cc1ccc(C(F)(F)F)cc1Cl measurement_kind="microsomal CLint at 1 µM" output_unit=µL/min/mg result_value=136
